Values from patent US20230265151A1

targetDesc: T1, human glucose-dependent insulinotropic polypeptide (GIP) receptor (human, UniProt P48546 22-466)
T1 sequence (looked up): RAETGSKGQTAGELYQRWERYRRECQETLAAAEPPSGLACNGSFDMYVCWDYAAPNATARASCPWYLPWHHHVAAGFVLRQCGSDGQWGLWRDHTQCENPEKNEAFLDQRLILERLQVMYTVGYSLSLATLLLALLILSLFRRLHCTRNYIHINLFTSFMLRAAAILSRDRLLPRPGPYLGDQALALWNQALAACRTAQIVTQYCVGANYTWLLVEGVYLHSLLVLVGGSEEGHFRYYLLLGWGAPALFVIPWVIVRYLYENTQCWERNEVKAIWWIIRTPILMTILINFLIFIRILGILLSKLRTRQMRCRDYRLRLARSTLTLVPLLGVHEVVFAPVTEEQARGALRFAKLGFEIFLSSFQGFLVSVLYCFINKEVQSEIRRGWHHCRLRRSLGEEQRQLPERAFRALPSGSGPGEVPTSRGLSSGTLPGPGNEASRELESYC
experimentalProtocol: cell-based or functional assay
*1 amine or outer side, *2 acyl side, *3 side chain or, on linkers, in order; H or OH if unused. Where no end group is shown, it is not given here. Side-chain parts run from the residue outwards. [ ]: non-standard residue; d: D form. The star is where a group is joined. αMePhe(2-F) = C[C@](N)(Cc1ccccc1F)C(=O)O; γGlu = O=C(O)[C@H](CCC(=O)[*:2])N[*:1]; C14 diacid = O=C(O)CCCCCCCCCCCCC(=O)*; εLys = N[C@@H](CCCCN[*:1])C(=O)[*:2]; αMeY = C[C@](N)(Cc1ccc(O)cc1)C(=O)O; αMeL = CC(C)C[C@](C)(N)C(=O)O; Orn = NCCC[C@H](N)C(=O)O; Aib = CC(C)(N)C(=O)O
reportedEndpoint: cAMP EC50 (nM)
Express your answer in nM, writing the number without its unit.

# annotated cases, reported cAMP EC50 shown
- binder: "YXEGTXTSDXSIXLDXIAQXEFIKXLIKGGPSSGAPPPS (Aib2, αMeF(2F)6, 2Nal10, αMeL13, Orn16, Aib20, K24(Z), αMeY25, K28(Z), C-terminal NH2; Z = AEEA2-(γ-Glu)-CO-(CH2)12-CO2H) [Example 252]"
  cAMP EC50, nM: 0.049
- binder: "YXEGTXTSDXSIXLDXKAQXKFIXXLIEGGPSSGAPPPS (Aib2, αMeF(2F)6, OMeY10, αMeL13, Orn16, K17(Z), Aib20, K21(Z), D-Glu24, αMeY25, C-terminal NH2; Z = AEEA2-(γ-Glu)-CO-(CH2)10-CH3) [Example 289]"
  cAMP EC50, nM: 0.017

(Q) Name the recorded cAMP EC50 for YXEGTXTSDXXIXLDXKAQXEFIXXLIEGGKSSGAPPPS (Aib2, αMeF(2F)6, 4Pal10, αMeS11, αMeL13, Orn16, K17(Z), Aib20, D-Glu24, αMeY25, K31(Z), C-terminal NH2; Z = AEEA2-(γ-Glu)-CO-(CH2)12-CO2H) [Example 213] .
(A) 0.0275

(Q) Name the recorded cAMP EC50 for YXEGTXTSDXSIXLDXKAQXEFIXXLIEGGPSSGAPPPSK (Aib2, αMeF(2F)6, 4Pal10, αMeL13, Orn16, K17(Z), Aib20, D-Glu24, αMeY25, K40(Z), C-terminal NH2; Z = AEEA2-(γ-Glu)-(10-(4-carboxyphenoxy)decanoyl)) [Example 273] .
(A) 0.0166

(Q) Name the recorded cAMP EC50 for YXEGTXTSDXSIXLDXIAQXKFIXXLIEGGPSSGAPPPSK (Aib2, αMeF(2F)6, 4Pal10, αMeL13, Orn16, Aib20, K21(Z), D-Glu24, αMeY25, K40(Z), C-terminal NH2; Z = AEEA2-(γ-Glu)-(4-(4-tert-butylphenyl)butanoyl)) [Example 205] .
(A) 0.0264

(Q) Name the recorded cAMP EC50 for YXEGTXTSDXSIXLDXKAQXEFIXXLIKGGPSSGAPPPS (Aib2, αMeF(2F)6, 4Pal10, αMeL13, Orn16, K17(Z), Aib20, D-Glu24, αMeY25, K28(Z), C-terminal NH2; Z = AEEA-(γ-Glu)-(4-(4-tert-butylphenyl)butanoyl)) [Example 208] .
(A) 0.018

(Q) Name the recorded cAMP EC50 for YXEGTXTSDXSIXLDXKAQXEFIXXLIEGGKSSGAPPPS (Aib2, αMeF(2F)6, 4Pal10, αMeL13, Orn16, K17(Z), Ac6c20, D-Glu24, αMeY25, K31(Z), C-terminal NH2; Z = AEEA2-(γ-Glu)-CO-(CH2)12-CO2H) [Example 171] .
(A) 0.0389

(Q) Name the recorded cAMP EC50 for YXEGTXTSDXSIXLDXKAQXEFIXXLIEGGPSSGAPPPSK (Aib2, αMeF(2F)6, 4Pal10, αMeL13, Orn16, K17(Z), Aib20, D-Glu24, αMeY25, K40(Z), C-terminal NH2; Z = AEEA-(γ-Glu)-(4-(4-tert-butylphenyl)butanoyl)) [Example 209] .
(A) 0.0133

(Q) Name the recorded cAMP EC50 for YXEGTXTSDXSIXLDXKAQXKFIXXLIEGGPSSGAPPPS (Aib2, αMeF(2F)6, Nle10, αMeL13, Orn16, K17(Z), Aib20, K21(Z), D-Glu24, αMeY25, C-terminal NH2; Z = AEEA2-CO-(CH2)12-CO2H) [Example 271] .
(A) 0.0186

(Q) Name the recorded cAMP EC50 for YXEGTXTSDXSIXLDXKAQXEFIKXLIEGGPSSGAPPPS (Aib2, αMeF(2F)6, 4Pal10, αMeL13, Orn16, K17(Z), Aib20, K24(Z), αMeY25, C-terminal NH2; Z = AEEA2-(εK)-CO-(CH2)12-CO2H) [Example 160] .
(A) 0.0197

(Q) Name the recorded cAMP EC50 for Y[Aib]EGT[αMePhe(2-F)]TSDV[Aib]I[αMeL]LD[Orn]K([εLys-γGlu-C14 diacid])AQ[Aib]EFIK([εLys-γGlu-C14 diacid])[αMeY]LIEGGPSSGAPPPS-NH2 [Example 167] .
(A) 0.0534

(Q) Name the recorded cAMP EC50 for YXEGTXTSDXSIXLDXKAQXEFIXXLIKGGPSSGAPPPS (Aib2, αMeF(2F)6, OMeY10, αMeL13, Orn16, K17(Z), Aib20, D-Glu24, αMeY25, K28(Z), C-terminal NH2; Z = AEEA2-(γ-Glu)-CO-(CH2)10-CH3) [Example 290] .
(A) 0.0188
